# STUDY_TARGET: JAK3 (Homo sapiens, UniProt P52333)
# PROTOCOL: Inhibition of a panel of kinases, in vitro HotSpot kinase assay: JAK3
# Format: biochemical
# CONDITION_DESCRIPTION: D-compounds panel data; 1 μM ATP; read-out: IC50 JAK3
Kindly supply the reported IC50 values for the records listed here.

C[C@@H]1[C@H](NC(=O)c2ccc(C3COC3)cc2)CCCN1c1cnc(C(N)=O)c(Nc2cnn(C)c2)n1 [Example D-23] | 0.1 to 1 µM

Hello, I would appreciate it if you could give IC50 for each entry below.
1. C[C@@H]1C[C@@H](NC(=O)c2ccc(C3CC3)cc2)CN(c2cnc(C(N)=O)c(Nc3cnn(C)c3)n2)C1 [Example D-31]
2. C[C@@H]1[C@H](NC(=O)c2ccc(C3CC3)cc2F)CCCN1c1cnc(C(N)=O)c(Nc2ccn(C)n2)n1 [Example D-129]
3. CN1CCN(C(=O)c2ccc(Nc3nc(N[C@H]4CC[C@@H](NC(=O)N(C)C)CC4)cnc3C(N)=O)cc2)CC1 [Example D-72]

["1 to 10 µM", "> 10 µM", "1 to 10 µM"]

###

Exercise: state measured pIC50 for each of the molecules provided.
# STUDY_TARGET: LCK (Homo sapiens)
# Sequence (P06239 whole entry): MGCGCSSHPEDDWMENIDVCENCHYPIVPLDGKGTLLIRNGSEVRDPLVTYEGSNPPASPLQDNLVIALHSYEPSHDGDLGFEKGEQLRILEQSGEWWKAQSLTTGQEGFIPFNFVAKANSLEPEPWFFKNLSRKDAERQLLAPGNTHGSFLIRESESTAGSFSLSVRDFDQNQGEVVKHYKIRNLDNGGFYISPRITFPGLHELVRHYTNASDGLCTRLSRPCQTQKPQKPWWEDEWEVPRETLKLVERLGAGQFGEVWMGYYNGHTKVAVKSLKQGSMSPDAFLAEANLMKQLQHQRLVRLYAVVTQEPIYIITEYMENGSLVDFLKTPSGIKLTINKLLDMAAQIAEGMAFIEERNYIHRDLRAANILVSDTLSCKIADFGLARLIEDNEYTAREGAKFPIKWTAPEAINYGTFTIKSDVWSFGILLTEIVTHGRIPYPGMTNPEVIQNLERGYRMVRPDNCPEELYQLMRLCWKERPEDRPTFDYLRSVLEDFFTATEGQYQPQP
# PROTOCOL: Inhibition of a panel of kinases, in vitro HotSpot kinase assay: LCK
# Assay type: biochemical
# CONDITION_DESCRIPTION: E compounds, Table 17; read-out: IC50 LCK
pIC50: −log10 of the molar value.

Some molecules with recorded pIC50:
C=CC(=O)N1CCC[C@@H](Nc2nnc(C(N)=O)c(Nc3ccc(C4CCN(C(=O)CC)CC4)cc3)n2)C1 [Example E-45] | 7.00 to 8.00
Cc1nc(-c2ccc(C(=O)N[C@@H]3CCCN(c4cnc(C(N)=O)c(Nc5cnn(C)c5)n4)[C@@H]3C)cc2)cs1 [Example E-155] | 7.00 to 8.00
C=CC(=O)N1CC[C@@H](N(C)c2nnc(C(N)=O)c(Nc3cc(C)ns3)n2)C1 [Example E-12] | 6.00 to 7.00
C[C@@H]1[C@H](NC(=O)c2ccc(C3CC3)cc2)CCCN1c1cnc(C(N)=O)c(Nc2cnc(C3CCOCC3)nc2)n1 [Example E-144] | 6.00 to 7.00
Cc1cc(C(=O)N[C@@H]2CCCN(c3cnc(C(N)=O)c(Nc4cnn(C)c4)n3)[C@@H]2C)ccc1C(C)(C)O [Example E-152] | 7.00 to 8.00
C=CC(=O)N1CCC[C@@H](Nc2nnc(C(N)=O)c(Nc3cccc(-n4nccn4)c3)n2)C1 [Example E-61] | 6.00 to 7.00
C[C@@H]1[C@H](NC(=O)c2ccc3c(c2)C(C)(C)OC3)CCCN1c1cnc(C(N)=O)c(Nc2cnn(C)c2)n1 [Example E-153] | 7.00 to 8.00
C=CC(=O)N1CC[C@@H](N(C)c2cnc(C(N)=O)c(Nc3ccc(C4CCN(C5CCCC5)CC4)cc3)n2)C1 [Example E-109] | 6.00 to 7.00

Value sought for every listed molecule: pIC50.
1. C=CC(=O)N1CCC[C@@H](Nc2nnc(C(N)=O)c(Nc3ccc(-c4ncco4)cc3)n2)C1 [Example E-40]
2. CCC(O)(CC)c1ccc(C(=O)N[C@@H]2CCCN(c3cnc(C(N)=O)c(Nc4cnn(C)c4)n3)[C@@H]2C)cc1 [Example E-151]
3. Cn1cc(Nc2nc(N3CCCC(C)(NC(=O)c4ccc(C5CC5)cc4)C3)cnc2C(N)=O)cn1 (centres unmarked) [Example E-150]
4. C=CC(=O)N1CC[C@@H](N(C)c2cnc(C(N)=O)c(Nc3ccc(C4CCN(C5CC5)CC4)cc3)n2)C1 [Example E-121]

1. 6.00 to 7.00
2. 6.00 to 7.00
3. 5.00 to 6.00
4. 7.00 to 8.00

Batch lookup, pIC50 per entry.
1. C[C@@H]1[C@H](NC(=O)c2ccc(C(C)(C)O)cc2)CCCN1c1cnc(C(N)=O)c(Nc2ccc(C3(C)CCN(C4CC4)CC3)cc2)n1 [Example E-147]
2. C=CC(=O)N1CCC[C@@H](Nc2nnc(C(N)=O)c(Nc3ccc4ncccc4c3)n2)C1 [Example E-68]

1: > 8.00; 2: 6.00 to 7.00

###

# STUDY_TARGET: JAK3 (Homo sapiens, UniProt P52333)
# Sequence (P52333 1-1124): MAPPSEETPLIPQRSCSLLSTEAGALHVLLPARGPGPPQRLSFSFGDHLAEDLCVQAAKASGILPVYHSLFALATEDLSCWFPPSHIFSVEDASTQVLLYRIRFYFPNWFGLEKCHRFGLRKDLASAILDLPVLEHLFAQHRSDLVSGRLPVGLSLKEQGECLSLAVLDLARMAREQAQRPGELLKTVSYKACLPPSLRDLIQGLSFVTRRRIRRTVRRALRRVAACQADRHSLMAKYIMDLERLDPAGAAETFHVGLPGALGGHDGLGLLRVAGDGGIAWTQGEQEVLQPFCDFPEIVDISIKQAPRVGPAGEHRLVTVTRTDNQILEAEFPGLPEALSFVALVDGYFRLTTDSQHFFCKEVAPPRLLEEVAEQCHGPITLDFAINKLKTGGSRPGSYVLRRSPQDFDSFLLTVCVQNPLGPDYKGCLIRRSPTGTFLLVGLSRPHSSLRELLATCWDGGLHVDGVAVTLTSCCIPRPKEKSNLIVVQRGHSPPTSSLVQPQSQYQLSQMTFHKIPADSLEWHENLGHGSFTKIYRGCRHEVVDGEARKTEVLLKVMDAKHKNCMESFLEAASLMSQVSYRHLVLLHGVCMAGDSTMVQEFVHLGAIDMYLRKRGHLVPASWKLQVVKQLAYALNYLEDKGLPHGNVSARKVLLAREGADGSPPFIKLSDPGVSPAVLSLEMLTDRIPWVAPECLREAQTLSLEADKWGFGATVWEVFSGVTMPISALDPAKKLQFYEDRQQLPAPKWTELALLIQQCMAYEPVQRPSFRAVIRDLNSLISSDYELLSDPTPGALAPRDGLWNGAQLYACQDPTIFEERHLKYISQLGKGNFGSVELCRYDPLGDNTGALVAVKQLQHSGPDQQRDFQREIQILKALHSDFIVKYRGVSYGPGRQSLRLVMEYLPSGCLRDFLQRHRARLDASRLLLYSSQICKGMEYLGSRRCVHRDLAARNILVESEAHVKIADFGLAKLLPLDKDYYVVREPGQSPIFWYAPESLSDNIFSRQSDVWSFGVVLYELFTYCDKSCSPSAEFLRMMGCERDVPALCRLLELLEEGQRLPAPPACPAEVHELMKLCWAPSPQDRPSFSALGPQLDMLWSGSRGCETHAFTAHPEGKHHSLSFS
# PROTOCOL: Inhibition of a panel of kinases, in vitro HotSpot kinase assay: JAK3
# Assay type: biochemical
# CONDITION_DESCRIPTION: D-compounds panel data; 1 μM ATP; read-out: IC50 JAK3
RECORDED_METRIC: IC50

C[C@@H]1[C@H](NC(=O)c2ccc(C3CC3)cc2F)CCCN1c1cnc(C(N)=O)c(Nc2ccc(N3CCN(C)C[C@@H]3C)cc2)n1 [Example D-12] | 0.1 to 1 µM
C[C@H]1CC[C@H](NC(=O)c2ccc(C3CC3)cc2)CN1c1cnc(C(N)=O)c(Nc2cnn(C)c2)n1 [Example D-144] | > 10 µM

Fill in: IC50 of C[C@@H]1[C@H](NC(=O)c2ccc(C3CC3)cc2)CCCN1c1cnc(C(N)=O)c(Nc2ccc3c(c2)CCOC3)n1 [Example D-303] is ___ > 10 µM

###

# STUDY_TARGET: ITK (Homo sapiens)
# Sequence (Q08881 whole entry): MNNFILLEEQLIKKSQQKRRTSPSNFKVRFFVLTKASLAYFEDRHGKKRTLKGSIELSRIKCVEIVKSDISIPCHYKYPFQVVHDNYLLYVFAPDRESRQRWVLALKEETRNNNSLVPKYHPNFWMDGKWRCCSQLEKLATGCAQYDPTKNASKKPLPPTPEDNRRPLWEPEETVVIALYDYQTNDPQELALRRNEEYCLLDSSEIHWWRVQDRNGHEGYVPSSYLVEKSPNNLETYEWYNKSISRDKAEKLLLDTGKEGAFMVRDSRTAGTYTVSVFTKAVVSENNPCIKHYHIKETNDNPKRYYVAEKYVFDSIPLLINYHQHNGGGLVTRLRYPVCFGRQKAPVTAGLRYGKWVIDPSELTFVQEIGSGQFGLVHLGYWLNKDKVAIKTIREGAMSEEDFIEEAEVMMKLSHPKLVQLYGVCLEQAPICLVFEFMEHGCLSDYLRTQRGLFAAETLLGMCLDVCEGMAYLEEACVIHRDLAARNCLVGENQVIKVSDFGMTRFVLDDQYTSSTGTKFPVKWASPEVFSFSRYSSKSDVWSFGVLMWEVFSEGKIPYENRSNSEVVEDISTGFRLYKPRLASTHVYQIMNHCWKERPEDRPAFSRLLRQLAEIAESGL
# PROTOCOL: Inhibition of a panel of kinases, in vitro HotSpot kinase assay: ITK
# Format: biochemical
# CONDITION_DESCRIPTION: E compounds, Table 17
pIC50: −log10 of the molar value.
RECORDED_METRIC: pIC50

For the 2 compounds below, give their pIC50 values.
1. C=CC(=O)N1CC[C@@H](N(C)c2cnc(C(N)=O)c(Nc3ccc(C4(C)CCN(C5CC5)CC4)cc3)n2)C1
2. C=CC(=O)N1CCC[C@@H](N(C)c2cnc(C(N)=O)c(Nc3cc(C)ns3)n2)C1

1: ≥ 8.00; 2: ≥ 8.00

###

# STUDY_TARGET: LCK (Homo sapiens)
# PROTOCOL: Inhibition of a panel of kinases, in vitro HotSpot kinase assay: LCK
# Assay type: biochemical
# CONDITION_DESCRIPTION: fold relative to Btk IC50 value
RECORDED_METRIC: LCK* IC50 relative to Btk IC50 value
# output: numeric value plus its unit

C[C@@H]1[C@H](NC(=O)c2ccc(C3COC3)cc2)CCCN1c1cnc(C(N)=O)c(Nc2cnn(C)c2)n1 | 63x
C[C@@H]1[C@H](NC(=O)c2ccc(C3CC3)cc2)CCCN1c1nnc(C(N)=O)c(Nc2cnn(C)c2)n1 | 49x
C[C@@H]1[C@H](NC(=O)c2ccc(C(C)(C)O)cc2)CCCN1c1cnc(C(N)=O)c(Nc2cnn(C)c2)n1 | 88x
C[C@@H]1[C@H](NC(=O)c2ccc(C(C)(C)C)cc2)CCCN1c1cnc(C(N)=O)c(Nc2cnn(C)c2)n1 | 684x
Cn1cc(Nc2nc(N3CCC[C@@H](NC(=O)c4ccc(C5CC5)cc4)C3)nnc2C(N)=O)cn1 | 107x
C[C@@H]1[C@H](NC(=O)c2ccc(C3CC3)cc2)CCCN1c1cnc(C(N)=O)c(Nc2cnn(C3CC3)c2)n1 | 102x

I'd like to know its LCK* IC50 relative to Btk IC50 value. The compound in question is C[C@@H]1[C@H](NC(=O)c2ccc(C3CC3)cc2)CCCN1c1cnc(C(N)=O)c(Nc2cnn(C(F)F)c2)n1 112x
